experiment summary: in vitro
test parameters: rat, hepatocytes
Would you kindly list CLhep predicted for each of these molecules?
Numbers only, in mL/min/kg.

structure smiles	recorded metric	quantitative result
CC1=C(c2cccc(O)c2)[C@H](c2ccc(OCCN3CC(CF)C3)cc2)Oc2c(O)cccc21	CLhep predicted	44
CC1=C(c2ccc(F)cc2)[C@H](c2ccc(OCCN3CC(CF)C3)cc2)Oc2ccc(O)cc21	CLhep predicted	31
CC1=C(c2ccc(F)cc2)[C@H](c2ccc(OCCN3CC(CF)C3)cc2)Oc2cc(F)c(O)cc21	CLhep predicted	28
Oc1cccc(C2=Cc3cc(O)ccc3O[C@H]2c2ccc(OCCN3CC(CF)C3)cc2)c1	CLhep predicted	41

**Q:** Quick check: CLhep predicted of "CCC1=C(c2cccc(O)c2)[C@H](c2ccc(OCCN3CC(CF)C3)cc2)Oc2ccc(O)cc21" ?
**A:** 40

---

experiment summary: in vivo
test parameters: rat, iv, 1 mg/kg
recorded metric: clearance (mL/min/kg)
Answers are plain numbers, in mL/min/kg.

structure smiles	quantitative result
CC1=C(c2cccc(O)c2)[C@H](c2ccc(OCCN3CC(CF)C3)cc2)Oc2ccc(O)cc21	100

As a next step, examine the molecule that follows.
**Q:** Suppose we examine the molecule "CC1=C(c2cccc(O)c2)[C@H](c2ccc(OCCN3CC(CF)C3)cc2)Oc2c(O)cccc21" ; what clearance value has been reported?
**A:** 18

---

Provide the recorded Papp A→B for the entries that follow.
experiment summary: in vitro
test parameters: dog, MDCK
Answers are plain numbers, in ×10⁻⁶ cm/s.

structure smiles	quantitative result
CC1=C(c2cccc(O)c2)[C@H](c2ccc(OCCN3CC(CF)C3)cc2)Oc2ccc(O)cc21	4.6

Let us examine a further case.
**Q:** # lookup: Papp A→B of "CC1=C(c2cccc(O)c2)[C@H](c2ccc(OCCN3CC(CF)C3)cc2)Oc2c(O)cccc21"
**A:** 2.4
